# System: SF-539 CNS
# EXPERIMENT NOTES: NCI-60 one-dose screen, 48 h
# STUDY CONDITIONS: 10 µM unless noted
The panel holds about 83,000 compounds, 20% with a hit somewhere; the sample as a whole holds those more often. Active and inactive are the calls of the source. Rule for the calls: active = growth percent below 10; inactive = the rest.
Outcomes: 1 (active), 0 (inactive)

# COMPOUND, TARGET SYSTEM, DISCRETE LABEL
rows = [
    ("N#Cc1cn(Cc2ccc(Cl)cc2Cl)c(C(=O)c2ccc(Br)cc2)c1N", "SF-539 CNS", 0),
    ("C=CCOc1cccc(/C=C2\\SC(=S)N(C3CC(=O)N(c4ccc(Br)cc4)C3=O)C2=O)c1 (stereo not given)", "SF-539 CNS", 0),
    ("CC(=O)N(C)C1CCc2c(sc(NC(=O)c3ccc(C(C)(C)C)cc3)c2C(N)=O)C1 (stereo not given)", "SF-539 CNS", 0),
    ("Cc1ccc(CSc2nc(-c3ccc(Cl)cc3)c(C#N)c(N3CCNCC3)n2)cc1", "SF-539 CNS", 0),
    ("CCCn1cnc2c(c1=N)C(c1ccc(OC)cc1)c1sc3c(C)cccc3c1O2 (stereo not given)", "SF-539 CNS", 1),
]

----------
# Tested on: SF-268 CNS
# EXPERIMENT NOTES: NCI-60 one-dose screen, 48 h (100 = growth as untreated, 0 = no growth, -100 = all killed)
# STUDY CONDITIONS: 10 µM unless noted
About 83,000 compounds went through this panel and 20% of them were active in at least one assay; those are over-represented in the sample as a whole.
Use growth to assign classes; range list: range A: < 30%; range B: ≥ 30% and < 60%; range C: ≥ 60%

# COMPOUND, DISCRETE LABEL
records = [
    ("COc1ccc(CCOc2cc3c(cc2OC)CCN(C(=O)NCc2cocn2)C3c2ccc(C)cc2C)cc1 (stereo not given)", "range A"),
    ("O=C(Nc1ccc(F)c(F)c1)c1cc(-c2ccc(F)cc2F)ccc1O", "range A"),
    ("CCCCNNC(=O)c1ccc(-c2cccc(F)c2F)cc1", "range B"),
    ("O=c1[nH]c(Sc2sc3ccc(Cl)cc3c2CBr)nc(=S)[nH]1", "range B"),
    ("COc1ccccc1N1CCN(C2=CC(=O)C(C)=C(C)C2=O)CC1", "range C"),
    ("COc1ccc(NC2=C(Cl)C(=O)c3nc(C)ccc3C2=O)cc1OC", "range C"),
    ("C=CCN(C)S(=O)(=O)/N=C1\\NC(=O)NC1=C(Cl)Cl", "range B"),
    ("CNC(=O)c1c(NC(=O)c2ccccc2C(F)(F)F)sc2c1CCC(=O)C2", "range B"),
    ("CS(=O)(=O)Nc1cc(-c2ccc3ncc(C#N)c(Nc4cccc(Cl)c4F)c3c2)cnc1Cl", "range A"),
]

----------
# System: RXF 393 renal
# EXPERIMENT NOTES: NCI-60 one-dose screen, 48 h
# STUDY CONDITIONS: 10 µM unless noted
About 83,000 compounds went through this panel and 20% of them were active in at least one assay; those are over-represented in the sample as a whole. Activity calls are given as the source filed them. The calls were made as follows: active = growth percent below 10; inactive = the rest.
Outcomes: YES (active), NO (inactive)

# COMPOUND, TARGET SYSTEM, DISCRETE LABEL
rows = [
    ("COc1ccccc1-n1cc(C#N)c(N)c1C(=O)c1ccc(Br)cc1", "RXF 393 renal", "NO"),
    ("COc1ccc(/C=C(\\C#N)C(=O)N2c3ccccc3Sc3ccc(SC)cc32)cc1F", "RXF 393 renal", "NO"),
    ("Cc1cccc2c3c(sc12)C(c1ccc(F)cc1)C(C#N)=C(/N=C/c1ccc(Cl)cc1)O3 (stereo not given)", "RXF 393 renal", "YES"),
    ("Cc1occc1-c1nc2s/c(=C/c3ccc(-c4cc(C(F)(F)F)ccc4Cl)o3)c(=O)n2n1", "RXF 393 renal", "NO"),
    ("COc1cc2nc(Cl)nc(Nc3cccc(C4=Nc5c(N)nc(N)nc5NC(c5ccc6c(c5)OCO6)C4)c3)c2cc1OC (stereo not given)", "RXF 393 renal", "NO"),
    ("Nc1cc(F)ccc1NC(=O)c1ccc(NC(=O)C/C=C/c2cccnc2)cc1", "RXF 393 renal", "NO"),
    ("Cc1ccc(-c2cc3nc(C(Cl)Cl)nc(C)n3n2)cc1", "RXF 393 renal", "NO"),
    ("C#CCOC(=O)[C@@H]1CCCN1CC#C", "RXF 393 renal", "NO"),
    ("COc1cc2nc(Cl)nc(Nc3cccc(C4=Nc5c(N)nc(N)nc5NC(c5ccc(Br)cc5)C4)c3)c2cc1OC (stereo not given)", "RXF 393 renal", "NO"),
    ("CNC(=O)c1cc(-c2ccc(NS(=O)(=O)c3ccc(C)cc3)cc2)nc2cccnc12", "RXF 393 renal", "NO"),
]

----------
# System: HOP-92 NSCLC
# EXPERIMENT NOTES: NCI-60 one-dose screen, 48 h
# STUDY CONDITIONS: 10 µM
Compounds without any hit were thinned out: in the full panel of roughly 83,000, 20% have a hit. The source made the active and inactive calls. Rule for the calls: active = growth percent below 10; inactive = the rest.
Outcomes: 1 = active, -1 = inactive

# MOLECULE, DISCRETE LABEL
measured = [
    ("COc1cc(Cn2cc3c(c2)-c2onc(CN4CCOCC4)c2CC3)cc(OC)c1OC", -1),
    ("COc1cc2oc(-c3cccc(NC(=O)c4cc(N)ccc4Cl)c3)cc(=O)c2c(OC)c1OC", -1),
    ("COc1cc(Nc2c(C#N)cnn3cc(-c4cnn(CC(C)(C)O)c4)cc23)ccc1Cl", -1),
    ("CCN(CC)c1ccc2c(c1)Oc1nc(N)c(C#N)c(N)c1C2Sc1ccc(C)cc1 (stereo unspecified)", 1),
    ("CCn1c2ccccc2c2cc(-n3nncc3-c3ccccc3)ccc21", -1),
    ("O=S(=O)(NCCCNc1nccc(-c2[nH]c(-c3ccccc3)nc2-c2ccc(Cl)c(O)c2)n1)c1cccc2ccccc12", -1),
    ("CN(Cc1ccccc1)S(=O)(=O)/N=C1\\NC(=O)NC1=C(Cl)Cl", -1),
    ("CC1(C)CC[C@]2(C(=O)N3CCOCC3)CC[C@]3(C)C(=CC[C@@H]4[C@@]5(C)C/C(=C/c6ccco6)C(=O)C(C)(C)[C@@H]5CC[C@]43C)[C@@H]2C1", -1),
    ("O=C(CNc1nc(-c2cccc([N+](=O)[O-])c2)cs1)Nc1cccc([N+](=O)[O-])c1", 1),
    ("O=C(Nc1ccc2c(ccn2Cc2ccccn2)c1)c1ccnnc1", -1),
    ("O=C1[C@H]2Cc3c([nH]c4ccccc34)[C@@H](c3ccc(Cl)cc3)N2C(=O)CN1C1CCN(Cc2ccccc2)CC1", -1),
    ("Cc1nc(-c2ccccc2O)ccc1C(=O)N=Nc1c(O)[nH]c2ccc(Br)cc12", -1),
    ("COc1ccc(S(=O)(=O)NCCCNc2nccc(-c3[nH]c(-c4ccccc4)nc3-c3ccc(Cl)c(O)c3)n2)cc1", -1),
    ("N#Cc1cccc(CN2CCC3=C(C2)C(=O)N(Cc2ccc(Cl)cc2)C2=NCCN23)c1", -1),
    ("O=C(O)c1ccc(-n2cc(CNc3cccc(Cl)c3)c(-c3ccc(F)cc3)n2)cc1", -1),
    ("Cn1cc(-c2cc(N)n3nc(-c4cn(C)c5ccccc45)cc3n2)c2ccccc21", -1),
    ("Cn1ccnc1C(=O)/C=C/c1ccc(CNC(=O)c2ccc(S(F)(F)(F)(F)F)cc2)cc1", -1),
    ("COc1cccc(N2CCN(c3ncnc4c3[nH]c3ccc(F)cc34)C[C@H]2C)c1", -1),
    ("CC1(C)CC[C@]2(C(=O)N3CCOCC3)CC[C@]3(C)C(=CC[C@@H]4[C@@]5(C)C/C(=C/c6ccccn6)C(=O)C(C)(C)[C@@H]5CC[C@]43C)[C@@H]2C1", -1),
    ("CS(=O)(=O)Nc1cc(-c2ccc3ncc(C#N)c(NCc4ccccc4)c3c2)cnc1Cl", 1),
    ("O=C1CC(=O)N2CSCN(C(c3ccccc3)c3nc4ncncc4[nH]3)C2=N1 (stereo unspecified)", -1),
    ("O=C(CNc1nc(-c2cccc([N+](=O)[O-])c2)cs1)Nc1cccc(Cl)c1", -1),
    ("O=S(=O)(NCCCNc1nccc(-c2[nH]c(-c3ccccc3)nc2-c2ccc(Cl)c(O)c2)n1)c1ccc(Br)cc1", -1),
    ("O=C(NCCN1CCCC1)c1ccc(-c2nc3ccc4[nH]ncc4c3c3c2CCCC3)cc1", 1),
    ("COc1c(N2CC3CCCNC3C2)c(F)cc2c(=O)c(C(=O)N/N=C/c3c[nH]c4ccccc34)cn(C3CC3)c12 (stereo unspecified)", -1),
    ("C#Cc1ccc(C(=O)NCc2ccc(/C=C/C(=O)c3nccn3C)cc2)cc1", 1),
    ("N#Cc1cnc2ccc(-c3cnc(N)nc3)cc2c1N1CCc2cc(F)c(Cl)cc21", 1),
    ("C[C@@H](Nc1c(C#N)cnc2ccc(-c3cnc(Cl)c(NS(C)(=O)=O)c3)cc12)c1ccccc1", 1),
    ("COc1cccc(O)c1/C=C(/C)c1ccc2c(OC)cccc2[o+]1", -1),
    ("C=C(C=O)[C@@H]1CC[C@]2(C)[C@H](C(=O)C=C3[C@H]4C[C@](C)(C(=O)OC)CC[C@]4(C)CC[C@]32C)[C@@]1(C)CCC#N", 1),
    ("NS(=O)(=O)c1ccc(-n2cc(CN3CCCCC3)nn2)cc1", -1),
    ("CCCSc1nc(Nc2ccc(/C(C)=N\\NC(N)=S)cc2)c(C#N)c(-c2ccccc2)n1", 1),
    ("C#Cc1nc(C(=O)NCCC(=O)Nc2ccc(NC(=O)c3ccc(/C=C/C(=O)c4nccn4C)cc3)cc2)cs1", -1),
    ("NC(N)=Nc1ccc(Oc2cccc(NC(N)=Nc3ccc(Cl)c(C(F)(F)F)c3)c2)cc1", -1),
    ("CS(=O)(=O)Nc1cc(-c2ccc3ncc(C#N)c(NCc4cccc(F)c4)c3c2)cnc1Cl", 1),
    ("O=S(=O)(NCCNc1nccc(-n2cnc3ccccc32)n1)c1ccc(Br)cc1", -1),
]
